# protocol: folding enthalpy; higher = less favourable; fluorescence melt of hairpins on a sequencing array, two-state fit
# conditions.used: sodium 0.088 M
readout.label: folding enthalpy (kJ/mol)
Give a bare numeral; the unit kJ/mol is implied.

Previously resolved entries follow.
GCTTGCCCGAAAGGGAGC (((..(((....))))))	-61.3
GCGAGGAAACTCGC (((((....)))))	-136

[in] Requested read-out: folding enthalpy. Entry: GATCGGAGTCCGATC ((((((...))))))
[out] -161

[in] Please give the measured folding enthalpy for this sequence: GATCCAGGAAACTGGATC (((((((....)))))))
[out] -159

[in] Which folding enthalpy value belongs to GAGTGAGGAAACTCATTC ((.((((....)))).)) ?
[out] -98.4

[in] folding enthalpy for GGATGAGGAAACTTATCC ((((.((....)).)))) ?
[out] -140

[in] Any idea what its folding enthalpy is? The sequence is GATCACCCGGGTGATC ((((((....))))))
[out] -217

[in] For the sequence shown here, GAAAGTGGAAACGCTTTC (((((.(....).))))) , give the reported folding enthalpy.
[out] -116

[in] # query: folding enthalpy of entry GTGCAGGGAAACTTGCGC (.(((.(....).))).)
[out] -130

[in] // query folding enthalpy value for entry GCGATACCGAAAGGTCGC (((..(((....))))))
[out] -123

[in] Which folding enthalpy is reported for this sequence? GTTAGCGGAAACGCTAGC (.(((((....))))).)
[out] -67.5

[in] Field request: folding enthalpy | item: GATCAGGAGGCTGATC ((((((....))))))
[out] -155
